Measured values drawn from patent US20230013402A1 for this set.

System: human skin fibroblasts
Test Details: High-throughput cell migration assay (Oris Pro Cell Migration Assay plate) / standardized viability
Type: cell-based
Condition Details: Table 2; additional Npas2 expression suppressors
Description: Mouse MSC carrying Npas2-LacZ reporter gene, as described by Hassan N, et al., PLoS One. 2017; 12(8):e0183359, which is incorporated by reference herein in its entirety, was immortalized using SV40 in order to accommodate a large-scale HTS. […] This cell system was used to screen FDA Approved Drug Library (1120 compounds). […]
Consider the cut-off 0.2. If the recorded Migration (standardized viability) Z Score is strictly smaller, the label is 1; if not, the label is -1.

As a guide, the following entries are already answered.
{"Compound": "Cc1c(NC(=O)c2cccnc2)c(=O)n(-c2ccccc2)n1C [Nifenazone]", "Class": 1}
{"Compound": "C[C@@H]1C[C@@H]([C@H](O)CC2CC(=O)NC(=O)C2)C(=O)[C@@H](C)C1 [Cycloheximide]", "Class": 1}

Now let's try a different one.
Does this compound meet the criterion Migration (standardized viability) Z Score < 0.2? CN(Cc1ccc(C(C)(C)C)cc1)Cc1cccc2ccccc12.Cl [Butenafine Hydrochloride]
-1

---

Migration (standardized viability) Z Score overview
System: human skin fibroblasts
Test Details: High-throughput cell migration assay (Oris Pro Cell Migration Assay plate) / standardized viability
Assay type: cell-based
Condition Details: Table 2; additional Npas2 expression suppressors
Text: Mouse MSC carrying Npas2-LacZ reporter gene, as described by Hassan N, et al., PLoS One. 2017; 12(8):e0183359, which is incorporated by reference herein in its entirety, was immortalized using SV40 in order to accommodate a large-scale HTS. […] This cell system was used to screen FDA Approved Drug Library (1120 compounds). […]
Structures can show the parent of a compound that is named as a salt.
Write no unit; give the number alone.

Below: 4 molecules and their reported Migration (standardized viability) Z Score.
{"Molecule": "CCN(CC)C(=O)N1CCN(C)CC1.O=C(O)CC(O)(CC(=O)O)C(=O)O [Diethylcarbamazine citrate]", "Target Under Test": "human skin fibroblasts", "Readout Number": "−2.08"}
{"Molecule": "S=c1nc[nH]c2nc[nH]c12 [MS-1500387, Mercaptopurine]", "Target Under Test": "human skin fibroblasts", "Readout Number": 0.577}
{"Molecule": "Cl.NCc1ccc(S(N)(=O)=O)cc1 [Mafenide hydrochloride]", "Target Under Test": "human skin fibroblasts", "Readout Number": "−0.188"}
{"Molecule": "CCCNC(C)C(=O)Nc1c(C)csc1C(=O)OC.Cl (centres unmarked) [Articaine hydrochloride]", "Target Under Test": "human skin fibroblasts", "Readout Number": "−0.466"}

Would you mind telling me what Migration (standardized viability) Z Score value was observed for CC[C@@]1([C@@H]2OC(C3O[C@@](O)(CO)[C@H](C)C[C@@H]3C)C[C@@H]2C)CC[C@H]([C@]2(C)CC[C@@]3(C[C@H](O)[C@@H](C)C([C@@H](C)[C@@H](OC)[C@H](C)C(=O)O)O3)O2)O1 (some centres unmarked) [Monensin sodium salt] ?
−8.13

---

Tested on: human skin fibroblasts
Test Details: High-throughput cell migration assay (Oris Pro Cell Migration Assay plate) / standardized viability
Format: cell-based
Condition Details: Table 2; additional Npas2 expression suppressors
Description: Mouse MSC carrying Npas2-LacZ reporter gene, as described by Hassan N, et al., PLoS One. 2017; 12(8):e0183359, which is incorporated by reference herein in its entirety, was immortalized using SV40 in order to accommodate a large-scale HTS. […] This cell system was used to screen FDA Approved Drug Library (1120 compounds). […]
Migration (standardized viability) Z Score overview

Below: 2 compounds and their reported Migration (standardized viability) Z Score.
{"Compound": "CN1C(=O)OC(C)(C)C1=O [Trimethadione]", "Result": "−0.105"}
{"Compound": "O=C(N/N=C/c1ccc([N+](=O)[O-])o1)c1ccc(O)cc1 [Nifuroxazide]", "Result": "−0.402"}

Next compound, Migration (standardized viability) Z Score to be filled in.
Would you mind telling me what Migration (standardized viability) Z Score value was observed for C[C@]12C=CC(=O)C=C1CC[C@@H]1[C@@H]2[C@@H](O)C[C@@]2(C)[C@H]1CC[C@]2(O)C(=O)CO [Prednisolone] ?
−2.31
